- experimental system: T1, peptide HNGGLCEEISQEVR (SEQ ID NO:82), N-terminally biotinylated (human)
- T1 construct: Human lactadherin 14-mer with part of the RGD domain at the C-terminus
- T1 peptide: Biotin-HNGGLCEEISQEVR
- assay protocol: ELISA, biotin-peptide on neutravidin plate, antibody 1 ug/ml
Ends that are not written are not given here. * marks the point of attachment. Biotin = O=C1N[C@H]2[C@H](CS[C@H]2CCCCC(=O)*)N1
observation type: absorbance 450 nm minus 540 nm (absorbance)
Your answer is read as absorbance, so omit the unit and give the number.

* anti-lactadherin antibody 416H9 (antibody, IgG1, V domains shown, also called hybridoma 416H9; LMBP 9492CB) VH: QVTLKESGPGVLQSSQTLSLTCSFSGFSLSTSGLGVIWIRQPSGAGLEWLAQIYWDDNKRYNPSLKSRLTISKDTSRNQVFLKITPVDTADTATYYCARRTFYDYDEGFYAMDYWGQGTSVTVSS VL: DIQMTQTTSSLSASLGDRVTITCRASQDISNYLNWYQQKPDGTIKLLIYYASRLHSGVPSRFSGSGSGTDYSLTISNLEQEDIATYFCQQGNTLPLTFGAGTKLELKR | 0.03

# lookup: absorbance 450 nm minus 540 nm of anti-lactadherin antibody 346B6 (antibody, IgG1, V domains shown, VH identical to that of 311A7; also called hybridoma 346B6; LMBP 9490CB) VH: EFQLQQSGPELVKPGASVRISCKASGYSFTDYNMNWVKQSDGKTLEWIGVINPDYGTTNNNQRFRGKATLTLDLSSSTAYMQLNSLTSEDSAVYYCARGGDYGAGYALDYWGQGTSVTVSS VL: QIVLTQSPAIMSASPGEKVTMTCSASSSVSYMYWYQQKPGSSPRLLIYDTSNLASGVPVRFSGSGSGTSYSLTISRMEAEDAATYYCQQWSSYPPTFGAGTKLELKR
0.02
